System: panel of hematologic and solid cancer lines
ASSAY: 6-day in vitro growth/death assay
Assay type: cell-based, human
DETAILS: MDA-MB-231; read-out: gIC50
Hi there, I'd appreciate the recorded IC50 for every entry that follows.
Form entry: value (nM) — number only.

Qu. Which IC50 value belongs to O=C(NC[C@H](O)CN1CCc2ccccc2C1)c1ccnc(NC2CCC2)c1 ?
Ans. 2930

Qu. Which IC50 value belongs to CC(=O)N1CCC(Nc2cc(C(=O)NC[C@H](O)CN3CCc4ccccc4C3)ncn2)CC1 ?
Ans. 544

###

Test system: panel of hematologic and solid cancer lines
ASSAY: 6-day in vitro growth/death assay
Type: cell-based, human
DETAILS: Homo sapiens, SCaBER; read-out: gIC50
Hi there, I'd appreciate the recorded IC50 for every entry that follows.

Qu. Missing value: IC50, panel of hematologic and solid cancer lines, entry O=C(NC[C@H](O)CN1CCc2ccccc2C1)c1ccnc(NC2CCC2)c1 [GSK3203591] . Fill in?
Ans. 255 nM

Qu. Missing value: IC50, panel of hematologic and solid cancer lines, entry CC(=O)N1CCC(Nc2cc(C(=O)NC[C@H](O)CN3CCc4ccccc4C3)ncn2)CC1 [GSK3326595] . Fill in?
Ans. 198 nM

###

System: panel of hematologic and solid cancer lines
ASSAY: 6-day in vitro growth/death assay
Assay type: cell-based, human
DETAILS: Homo sapiens, KP-3; read-out: gIC50
OBSERVATION_TYPE: pIC50
Kindly note that pIC50 refers to -log10 of the concentration in mol/L and answer with the value alone.

Qu. Which pIC50 value belongs to O=C(NC[C@H](O)CN1CCc2ccccc2C1)c1ccnc(NC2CCC2)c1 ?
Ans. 7.00

###

Test system: panel of hematologic and solid cancer lines
ASSAY: 6-day in vitro growth/death assay
Format: cell-based, human
DETAILS: SW-780; read-out: gIC50
OBSERVATION_TYPE: IC50 (µM)
Form entry: value (µM) — number only.

Qu. Which IC50 value belongs to O=C(NC[C@H](O)CN1CCc2ccccc2C1)c1ccnc(NC2CCC2)c1 ?
Ans. 0.451

###

System: panel of 240 cancer cell lines
ASSAY: 10-day growth/death assay (Eurofins panel)
Assay type: cell-based
DETAILS: Homo sapiens, SW900, SW900; read-out: gIC50
OBSERVATION_TYPE: pIC50
Kindly note that pIC50 refers to -log10 of the concentration in mol/L and answer with the value alone.

Qu. Which pIC50 value belongs to O=C(NC[C@H](O)CN1CCc2ccccc2C1)c1ccnc(NC2CCC2)c1 ?
Ans. 5.49

###

System: panel of hematologic and solid cancer lines
ASSAY: 6-day in vitro growth/death assay
Format: cell-based, human
DETAILS: Homo sapiens, M059J; read-out: gIC50
OBSERVATION_TYPE: pIC50
Kindly note that pIC50 refers to -log10 of the concentration in mol/L and answer with the value alone.

Qu. Which pIC50 value belongs to O=C(NC[C@H](O)CN1CCc2ccccc2C1)c1ccnc(NC2CCC2)c1 [GSK3203591] ?
Ans. 4.72

###

Tested on: panel of 240 cancer cell lines
ASSAY: 10-day growth/death assay (Eurofins panel)
Format: cell-based
DETAILS: Homo sapiens, TCC-SUP, TCCSUP; read-out: gIC50
OBSERVATION_TYPE: IC50 (nM)
Form entry: value (nM) — number only.

Qu. Which IC50 value belongs to O=C(NC[C@H](O)CN1CCc2ccccc2C1)c1ccnc(NC2CCC2)c1 ?
Ans. 235
